study_system: T1, JPH1 (1 to 175, 265 to 442) (human, UniProt Q9HDC5 1-175; Q9HDC5 265-442)
T1 chain (looked up): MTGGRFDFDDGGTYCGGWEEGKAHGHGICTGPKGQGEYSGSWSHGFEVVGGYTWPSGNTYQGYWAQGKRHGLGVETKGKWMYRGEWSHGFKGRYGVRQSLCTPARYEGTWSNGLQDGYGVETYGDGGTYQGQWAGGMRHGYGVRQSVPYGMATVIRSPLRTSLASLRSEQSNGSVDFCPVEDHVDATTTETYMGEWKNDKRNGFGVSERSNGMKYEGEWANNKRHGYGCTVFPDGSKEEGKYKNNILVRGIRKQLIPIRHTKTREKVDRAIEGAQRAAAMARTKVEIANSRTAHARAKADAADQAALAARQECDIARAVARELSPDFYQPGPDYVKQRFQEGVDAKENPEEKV
assay_text: ITC
pKd: −log10 of the molar value.
measured_metric: pKd

Q: Entry EERIFRRTGGLFGQVD (peptide, UniProt P07293 1594-1609, looked up) [CaV1.1 peptide (rabbit CaV1.1 residues 1594 to 1609)] : reported pKd = ?
A: 5.70 to 6.00
